System: DeltatarO mutant
assay.details: S. aureus survival, RN4220 and DeltatarO strains – OD600, teichoic acid synthesis inhibitors, primary screen (AID 463173)
condition.label: S. aureus RN4220 wild type/DeltatarO growth, OD600, 18 h, stronger effect = lower value, screened at 18.75 µg/mL (by protocol)
The campaign covered roughly 52,000 compounds. About 4,300 (8.3%) were called active. Only a selection was taken, and actives are over-represented in it overall.
metric.name: survival (%)
Numbers only here, please. The scale is %.

O=C(Cn1ncc2c([nH]c3ccccc32)c1=O)NCc1cccc(Cl)c1
20

Would you kindly look at the next entry?
Enquiry: If you can, please state the reported survival value of O=C1CC(c2c(Cl)cccc2Cl)c2c(ccc3ccccc23)N1 (configuration not stated) .
Return: 73

====

Test system: DeltatarO mutant
assay.details: S. aureus survival, RN4220 and DeltatarO strains – OD600, teichoic acid synthesis inhibitors, primary screen (AID 463173)
condition.label: S. aureus RN4220 wild type/DeltatarO growth, OD600, 18 h, screened at 18.75 µg/mL (by protocol)
Hit rate of the full screen: of about 52,000 compounds, about 4,300 (8.3%) were called active. Cut-off read from the data, not from the text of the source: active = survival mostly below about 52% (no sharp cut-off); inactive = mostly above about 56%. Only a selection was taken, and actives are over-represented in it overall.
Choose the fitting class; nothing outside true (1) for active, false (0) for inactive is accepted.

Examples from the recorded data:
CC1CCC(C(=O)NC(C(=O)OCC(=O)c2ccccc2)C(C)C)CC1 (stereo not given)
false (0)
COc1ccc(-c2nc3ccccc3o2)cc1NC(=O)c1cc(Br)ccc1OC
true (1)
CCOc1ccc(CNC(=O)C2Cc3ccccc3N2C(=O)CC)cc1OC (stereo not given)
false (0)

Enquiry: State the result this test recorded for COc1ccc(C2CC(=O)c3cc(-c4nc(-c5cccc([N+](=O)[O-])c5)cs4)c(=O)n(-c4ccc(C)c(C)c4)c3C2)cc1 (stereo not given) .
Return: false (0)

Enquiry: State the result this test recorded for CC(C)(C)OC(=O)N1CCC(c2c(C(=O)NCc3ccco3)cnn2-c2ccccc2Cl)CC1 .
Return: false (0)

Enquiry: State the result this test recorded for CN1C(=O)C(=C(C#N)C#N)c2cc(Br)ccc21 .
Return: false (0)

Enquiry: State the result this test recorded for COc1ccc(CC(C(=O)O)c2ccccc2)cc1 (stereo not given) .
Return: false (0)

Enquiry: State the result this test recorded for Cc1cc(C)c(NC(=O)CSc2nccn2Cc2ccco2)c(C)c1 .
Return: false (0)

Enquiry: State the result this test recorded for Cc1ccc(-c2cc(C(F)F)n3ncc(C(=O)Nc4cn(C)nc4C)c3n2)cc1 .
Return: false (0)

Enquiry: State the result this test recorded for CCc1ccc(Nc2ncnc3c2cnn3-c2cc(Cl)ccc2C)cc1 .
Return: false (0)

====

Tested on: DeltatarO mutant
assay.details: S. aureus survival, RN4220 and DeltatarO strains – OD600, teichoic acid synthesis inhibitors, primary screen (AID 463173)
condition.label: S. aureus RN4220 wild type/DeltatarO growth, OD600, 18 h, stronger effect = lower value, screened at 18.75 µg/mL (by protocol)
Among all 52,000 compounds or so, about 4,300 (8.3%) were called active. Only a selection was taken, and actives are over-represented in it overall.
metric.name: survival

Cc1ccc2[nH]cc(C(c3ccccc3)c3ccc(C)s3)c2c1 (stereo unspecified)
25% (active)
COc1cccc(NC(=O)CCS(=O)(=O)c2ccc3c(c2)oc(=O)n3C)c1
89% (inactive)
Clc1cc2c(cc1C=Nc1ccc(N3CCOCC3)cc1)OCO2
83% (inactive)

Enquiry: If you can, please state the reported survival value of O=C(C1CCC(CNS(=O)(=O)c2cccs2)CC1)N1CCN(c2ccc(Cl)cc2)CC1 (stereo unspecified) .
Return: 60% (inactive)

Enquiry: If you can, please state the reported survival value of CCCCSc1nc(O)c(CCC(C)C)c(=O)[nH]1 .
Return: 60% (inactive)

Enquiry: If you can, please state the reported survival value of CCOC(=O)c1[nH]c2ccccc2c1NC(=O)c1ccc(OCC)cc1 .
Return: 75% (inactive)

====

Tested on: DeltatarO mutant
assay.details: S. aureus survival, RN4220 and DeltatarO strains – OD600, teichoic acid synthesis inhibitors, primary screen (AID 463173)
condition.label: S. aureus RN4220 wild type/DeltatarO growth, OD600, 18 h, stronger effect = lower value, screened at 18.75 µg/mL (by protocol)
The campaign covered roughly 52,000 compounds. About 4,300 (8.3%) were called active. The sample holds actives, similar compounds and a random draw of the others, so the mix is not that of the screen.
metric.name: survival (%)
Numbers only here, please. The scale is %.

Past entries and their recorded results:
COc1cc(OC)cc(C(=O)Nc2cc(-c3nc4cccnc4s3)ccc2C)c1
43
COc1ccc(CC(=O)Nc2cc(-c3nc4cccnc4s3)ccc2C)cc1
41
CCCC(=O)Nc1cc(-c2nc3cccnc3s2)ccc1C
109
COCC(=O)Nc1cccc(-c2nc3cccnc3s2)c1
68
CCOc1ccc(CC(=O)Nc2cccc(-c3nc4cccnc4s3)c2C)cc1
90

Would you kindly look at the next entry?
Enquiry: // map Cc1ccc(-c2nc3cccnc3s2)cc1NC(=O)Cc1ccccc1 to recorded survival (system: DeltatarO mutant)
Return: 99

====

Test system: DeltatarO mutant
assay.details: S. aureus survival, RN4220 and DeltatarO strains – OD600, teichoic acid synthesis inhibitors, primary screen (AID 463173)
condition.label: S. aureus RN4220 wild type/DeltatarO growth, OD600, 18 h, stronger effect = lower value, screened at 18.75 µg/mL (by protocol)
Screen size: about 52,000 compounds; about 4,300 (8.3%) were called active. The full list was thinned out, with actives kept by preference.
metric.name: survival (%)
Numbers only here, please. The scale is %.

Past entries and their recorded results:
Cc1ccc(C)c(-n2c3nc(=O)[nH]c(=O)c-3cc3c(C)nn(-c4ccccc4)c32)c1
92
CCOC(=O)c1ccc2ncc(C(=O)OCC)c(Nc3ccc(C)c(Br)c3)c2c1
39
CCOC(=O)c1cnc2cc(F)c(F)cc2c1Nc1ccccc1O
156
CCOC(=O)c1cnc2ccc(C(=O)OC)cc2c1Nc1ccccc1CC
-3
O=C(CCSCc1ccc(Cl)cc1)N1CCN(c2ccccc2F)CC1
77

Enquiry: If you can, please state the reported survival value of CCCOC(=O)c1ccc(NC(=O)Cc2csc(C)n2)cc1 .
Return: 105

Enquiry: If you can, please state the reported survival value of Cc1nc(CC(=O)Nc2ccc(C(N)=O)cc2)cs1 .
Return: 49

Enquiry: If you can, please state the reported survival value of C=CCN(CC=C)C(=O)COc1ccc(Cl)cc1Cl .
Return: 73

Enquiry: If you can, please state the reported survival value of CCc1ccc2[nH]cc(S(=O)(=O)c3ccc(C(C)C)cc3)c(=O)c2c1 .
Return: 62

Enquiry: If you can, please state the reported survival value of Cc1nc2cc(-c3cccc(F)c3)nn2c(C)c1CCC(=O)N1CCN(c2ccc(F)cc2)CC1 .
Return: 56

Enquiry: If you can, please state the reported survival value of CCc1ccc(NC(=O)CNC(=O)Cn2c(C)cc3ccccc3c2=O)cc1 .
Return: 114

====

System: DeltatarO mutant
assay.details: S. aureus survival, RN4220 and DeltatarO strains – OD600, teichoic acid synthesis inhibitors, primary screen (AID 463173)
condition.label: S. aureus RN4220 wild type/DeltatarO growth, OD600, 18 h, stronger effect = lower value, screened at 18.75 µg/mL (by protocol)
The campaign covered roughly 52,000 compounds. About 4,300 (8.3%) were called active. For the sample, actives were picked, then their nearest neighbours and some compounds at random.
# note: boundary value 70% maps to not met; survival below it maps to met

Examples from the recorded data:
Fc1ccc(Cc2cn3cc(-c4ccc(F)cc4)nc3s2)cc1
met
Cc1ccc(C(c2sc3nc(-c4ccco4)nn3c2O)N2CCC3(CC2)OCCO3)cc1 (stereo not given)
not met
Cc1cc(C)cc(NC(=O)CCc2c(C)nc3c4cccnc4nn3c2C)c1
not met
Oc1c(C(c2ccc(F)cc2)N2CCN(Cc3ccccc3)CC2)sc2nc(-c3ccco3)nn12 (stereo not given)
not met
O=C(NCCc1ccc(Cl)cc1)C(=O)NCC(c1ccco1)S(=O)(=O)c1ccc(Cl)cc1 (stereo not given)
not met
Oc1c(C(c2ccccc2)N2CCCC2)sc2nc(-c3ccco3)nn12 (stereo not given)
met
CC(=O)c1ccc(S(=O)(=O)Nc2cccc(-c3ccc(N4CCCC4)nn3)c2)cc1
not met
COc1ccc(CCn2c(=O)c3ccccc3n(CC(=O)Nc3cccc(C)c3)c2=O)cc1OC
not met

Enquiry: Please determine if Fc1ccccc1Cc1cn2cc(-c3ccc(Cl)cc3)nc2s1 is below 70% in terms of survival.
Return: met

Enquiry: Please determine if O=C(Cn1c2ncccc2c(=O)n1-c1ccccc1)Nc1cccc(C(F)(F)F)c1 is below 70% in terms of survival.
Return: met

====

System: DeltatarO mutant
assay.details: S. aureus survival, RN4220 and DeltatarO strains – OD600, teichoic acid synthesis inhibitors, primary screen (AID 463173)
condition.label: S. aureus RN4220 wild type/DeltatarO growth, OD600, 18 h, stronger effect = lower value, screened at 18.75 µg/mL (by protocol)
The campaign covered roughly 52,000 compounds. About 4,300 (8.3%) were called active. The entries come from a sample that favours actives as a whole.
Form field: survival (one value per entry).
Numbers only here, please. The scale is %.

Past entries and their recorded results:
Cc1ccc(CN(Cc2ccco2)C(=O)COc2c(C)cc(C)cc2C)cc1
54
Cc1nc(-c2ccc(S(=O)(=O)N3CCN(c4cccc(C(F)(F)F)c4)CC3)cc2)co1
67
O=C(CSc1nc2cc3ccccc3cc2[nH]1)Nc1cccc(C(F)(F)F)c1
74
COc1ccc(/C=C/c2nc(C#N)c(NC3CCCCC3)o2)cc1OC
36
CCc1ccc(S(=O)(=O)c2nnn3c2nc(NCc2ccccc2)c2cc(Cl)ccc23)cc1
86

Would you kindly look at the next entry?
Enquiry: If you can, please state the reported survival value of Cc1ccc(OCC(=O)N(Cc2ccc(Cl)cc2)Cc2ccco2)cc1C .
Return: 58
